TESTED SYSTEM: GluR2Qflip AMPA receptor (homomeric channel) (UniProt P19491-2 P19491-2:22-883)
Sequence (P19491 other isoform, or with tags, fused parts or gaps): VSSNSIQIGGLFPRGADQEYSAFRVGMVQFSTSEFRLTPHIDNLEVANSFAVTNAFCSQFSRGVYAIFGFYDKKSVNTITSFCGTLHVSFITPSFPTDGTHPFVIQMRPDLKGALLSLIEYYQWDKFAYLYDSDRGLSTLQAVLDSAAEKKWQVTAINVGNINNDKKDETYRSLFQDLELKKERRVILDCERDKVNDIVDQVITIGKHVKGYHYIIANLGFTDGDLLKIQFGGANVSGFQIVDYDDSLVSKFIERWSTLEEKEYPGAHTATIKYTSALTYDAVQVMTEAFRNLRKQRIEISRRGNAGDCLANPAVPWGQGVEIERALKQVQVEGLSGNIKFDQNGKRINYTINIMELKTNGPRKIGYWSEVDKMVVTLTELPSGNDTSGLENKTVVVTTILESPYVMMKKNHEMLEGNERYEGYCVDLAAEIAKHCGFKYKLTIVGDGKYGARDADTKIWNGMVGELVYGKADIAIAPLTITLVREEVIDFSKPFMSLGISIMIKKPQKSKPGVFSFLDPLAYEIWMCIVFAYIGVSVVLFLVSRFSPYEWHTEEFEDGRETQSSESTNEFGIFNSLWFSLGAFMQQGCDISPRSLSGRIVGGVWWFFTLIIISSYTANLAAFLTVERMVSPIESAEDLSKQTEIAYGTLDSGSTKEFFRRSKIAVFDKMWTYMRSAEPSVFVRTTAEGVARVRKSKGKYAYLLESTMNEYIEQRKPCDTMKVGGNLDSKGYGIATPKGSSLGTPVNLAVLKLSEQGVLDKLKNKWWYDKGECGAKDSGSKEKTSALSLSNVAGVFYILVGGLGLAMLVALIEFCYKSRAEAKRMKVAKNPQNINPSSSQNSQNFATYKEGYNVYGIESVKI
ASSAY TEXT: inhibition; intrinsic KI, whole-cell current, competitive; pH 7.4, 22 C, -60 mV
EXPERIMENTAL CONTEXT: tags: expressed in HEK-293S cells (co-transfected with GFP and SV40 large T antigen); chain copies: 4
QUANTITY NAME: Ki (nM)
Only the number, expressed in nM, is required.

Exercise: Request the reported Ki associated with AN57 (57-nt minimal aptamer, M1+M2 mixture) (ssRNA) RNA: GGGCGAAUUCACUGCCAUCUAGGCAGUAACCAGGAGUUAGUAGGACAAGUUUCGUCC
Solution: 133

Source listed as patent US20060148746.
